Data origin: the supplement of paper PMC9233669

# System: biotinyl-Met-oxazolone
# test_summary: self-aminoacylation, catalytic enhancement (BMO) (fold over background); higher = more active; k-Seq, kA / k0A0; sequences stand for … in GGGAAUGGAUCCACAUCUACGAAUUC…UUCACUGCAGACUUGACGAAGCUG
Fewer inactive variants are shown than the library holds.
The reader will find reported self-aminoacylation values listed item by item below.
I only need the number, thanks.

Past entries and their recorded results:
seq_text	self-aminoacylation
CCACACUUCAGGCAAUCGGGC [Fam1B.1 aminoacylation ribozyme variant]	1.37
CCACACUUCAGGCAAUCGGUC [Fam1B.1 aminoacylation ribozyme variant]	1.14
CCACUUCAAACAAUCGUUCUG [Fam1A.1 aminoacylation ribozyme variant]	0.479

Entry AUUCGCCUAGGUCGUCGGGUG [Fam2.2 aminoacylation ribozyme variant] : reported self-aminoacylation = ?
2.28

* * *

# System: biotinyl-Leu-oxazolone
# test_summary: self-aminoacylation, catalytic enhancement (BLO) (fold over background); higher = more active; k-Seq, kA / k0A0; sequences stand for … in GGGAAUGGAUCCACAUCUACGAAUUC…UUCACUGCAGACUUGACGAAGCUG
This sample holds only a part of the variants without activity.
The reader will find reported self-aminoacylation values listed item by item below.
I only need the number, thanks.

seq_text	self-aminoacylation
AUUCACCUAGGUCUUCAGGUG [Fam2.2 aminoacylation ribozyme variant]	2.02
AUUACCCUGGUCAUUGGGUGA [Fam2.1 aminoacylation ribozyme variant]	13.1

Entry CCACGCUUCAAGCGAUCGGUC [Fam1B.1 aminoacylation ribozyme variant] : reported self-aminoacylation = ?
1.05

Entry CCCCGCUUCAAGCAAUCGGUC [Fam1B.1 aminoacylation ribozyme variant] : reported self-aminoacylation = ?
3.73

Entry UUUACCCCGGUCAUCGAGUGA [Fam2.1 aminoacylation ribozyme variant] : reported self-aminoacylation = ?
6.37

Entry AACUUUGCUAAUUGUCGCAAG [Fam3.1 aminoacylation ribozyme variant] : reported self-aminoacylation = ?
2.44

Entry AUUACCCUGGUCAUCAUGUGA [Fam2.1 aminoacylation ribozyme variant] : reported self-aminoacylation = ?
6.36

Entry AAAUUUGCUAAUAGUCGCAAC [Fam3.1 aminoacylation ribozyme variant] : reported self-aminoacylation = ?
1.91

Entry AUUACCCUGGUAAUCGAGUGG [Fam2.1 aminoacylation ribozyme variant] : reported self-aminoacylation = ?
2.79

* * *

# Tested on: biotinyl-Ile-oxazolone
# test_summary: self-aminoacylation, catalytic enhancement (BIO) (fold over background); higher = more active; k-Seq, kA / k0A0; sequences stand for … in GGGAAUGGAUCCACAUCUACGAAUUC…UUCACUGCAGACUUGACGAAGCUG
This sample holds only a part of the variants without activity.
quantity_measured: self-aminoacylation

Past entries and their recorded results:
seq_text	self-aminoacylation
AUCCACCUAUGUCAUCGGGUG [Fam2.2 aminoacylation ribozyme variant]	4.42
CCACACUUCAAUCAAUCGGUC [Fam1B.1 aminoacylation ribozyme variant]	1.1
AUUCACGUAGGACAUCGGGUG [Fam2.2 aminoacylation ribozyme variant]	3.6
AAGCUUGCUAAUCGUCGCAAG [Fam3.1 aminoacylation ribozyme variant]	1.85

We next turn to a different sequence, shown below.
Entry AUUCACCUAGGUGAUCGGUUG [Fam2.2 aminoacylation ribozyme variant] : reported self-aminoacylation = ?
0.875

* * *

# Test system: biotinyl-Phe-oxazolone
# test_summary: self-aminoacylation, catalytic enhancement (BFO) (fold over background); higher = more active; k-Seq, kA / k0A0; sequences stand for … in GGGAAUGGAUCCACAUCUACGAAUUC…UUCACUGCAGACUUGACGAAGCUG
Fewer inactive variants are shown than the library holds.
quantity_measured: self-aminoacylation
I only need the number, thanks.

Entry AAUCACCUAGCUCAUCGGGUG [Fam2.2 aminoacylation ribozyme variant] : reported self-aminoacylation = ?
17.7

Entry UUACUUCAAACAAUCGGCCUG [Fam1A.1 aminoacylation ribozyme variant] : reported self-aminoacylation = ?
95.3

Entry CUAAUUCAAAGAAUCGGUCUG [Fam1A.1 aminoacylation ribozyme variant] : reported self-aminoacylation = ?
0.767
